These data points were gathered from ChEMBL document CHEMBL5532743.

- MEASUREMENT_PROTOCOL: Drug degradation in human serum assessed as half life by RP-HPLC analysis
- Format: ADME, cell-free
Non-standard residues stand in square brackets, D forms with d. Residues, ends and D or L forms follow the SMILES beside them. *: point of attachment. NMeW = CN[C@@H](Cc1c[nH]c2ccccc12)C(=O)O; Phe(4-F) = N[C@@H](Cc1ccc(F)cc1)C(=O)O; Acetyl(2-thienyl) = O=C(Cc1cccs1)*; αMeF = C[C@](N)(Cc1ccccc1)C(=O)O
MEASUREMENT_TYPE: half-life (min)
Response body: numeric value in min, unit text excluded.

CN(C(=O)Cc1cccs1)[C@@H](Cc1c[nH]c2ccccc12)C(=O)N[C@@H](Cc1ccc(F)cc1)C(=O)N[C@@H](CCCNC(=N)N)C(=O)N1CCC[C@H]1C(=O)N[C@@H](CCCNC(=N)N)C(N)=O ({Acetyl(2-thienyl)}-[NMeW][Phe(4-F)]RPR-NH2)	1.9

Kindly consider the entry below.
Prompt: Please report half-life for the following molecule: CN(C(=O)Cc1cccs1)[C@@H](Cc1c[nH]c2ccccc12)C(=O)N[C@@](C)(Cc1ccccc1)C(=O)N[C@@H](CCCNC(=N)N)C(=O)N1CCC[C@H]1C(=O)N[C@@H](CCCNC(=N)N)C(N)=O ({Acetyl(2-thienyl)}-[NMeW][αMeF]RPR-NH2)
Response: 5
